Tested on: A. baumannii ATCC 19606
Construct: ATCC 19606
Experiment: microbe, parasite or virus in culture
Design: broth microdilution in Mueller-Hinton broth, minimum inhibitory concentration
Settings: Acinetobacter baumannii, ATCC19606, 18 h
What MIC was measured for each of the following?

CC(=O)NN1c2c(c3c(c4c2C(=O)C(C)(O)C=C4)C(=O)c2cccc(O)c2-3)OC2C1c1c(cc(O)c3c1C(=O)c1cccc(O)c1-3)C(=O)C2(C)O (stereo not drawn); > 64 µg/mL
C[C@]12O[C@H]1[C@H](Nc1ccc(C(=O)O)cc1)c1c(cc(O)c3c1C(=O)c1cccc(O)c1-3)C2=O; > 64 µg/mL

# input for lookup
For Cc1ccc2c(c1)OC1(C)C(=O)c3cc(O)c4c(c3C(N2)C1O)C(=O)c1cccc(O)c1-4 (stereo not drawn) the compound record lists MIC as > 64 µg/mL
